Entry source: ChEMBL document CHEMBL5257023

Please go through the items and note down their GI50.
- Tested on: NCI-H226
- assayComment: Anticancer activity against human NCI-H226 cells assessed as inhibition of cell growth incubated for 48 hrs by SRB assay
- Format: functional
Where a name gives a salt, the structure may show the parent alone.

GI50 value, target or system NCI-H226, for Cc1sc2[nH]c(CNc3ccc(F)cc3)nc(=O)c2c1C : > 100 µM

Response field GI50 (NCI-H226) for item Cc1cc(C)n(C(=O)CNc2ccccc2Cl)n1 : > 100 µM

Note to self: GI50 of Cc1cc(C)cc(O[C@H](C)C(=O)Nc2ccc(F)c([N+](=O)[O-])c2)c1 with NCI-H226 was > 100 µM

Record NC(=O)c1c(NC(=O)Cc2ccc(F)cc2)sc2c1CCCC2 / NCI-H226, GI50 recorded as 65.7 µM

Record C[C@H](Oc1ccc(Cl)cc1)C(=O)Nc1sc2c(c1C(N)=O)CCCC2 has NCI-H226 GI50 equal to > 100 µM

Per the reported NCI-H226 data, COc1cccc2c1C(=O)c1c(O)c3c(c(O)c1C2=O)C[C@@](O)(C(=O)CO)C[C@@H]3O[C@H]1C[C@H](N)[C@H](O)[C@H](C)O1 [DOXORUBICIN HYDROCHLORIDE] has GI50 of < 0.1 µM

Measured GI50 (NCI-H226), entry Cc1ccc(-c2cc3cc(F)ccc3[nH]2)cc1N : > 100 µM

Query Cc1cc(C)n2ncc(C(=O)NCc3ccc(Cl)cc3)c2n1 on NCI-H226; GI50 returned: > 100 µM

Measured on NCI-H226, Cc1nn(C[C@@H](O)COc2ccc3c(C)cc(=O)oc3c2)c(C)c1C has a documented GI50 of 96.5 µM

Test item Cc1cc(C)n(C(=O)CCn2nc(C)c(Cl)c2C)n1 ; NCI-H226; reported GI50 was > 100 µM

NCI-H226 data for Nc1cc(-c2cc3cc(F)ccc3[nH]2)ccc1F ; its GI50: 62.3 µM

Readout GI50 for Cc1ccc(-c2cc(C(N)=O)c3cc(Cl)ccc3n2)o1 , test system NCI-H226, was 70.5 µM

---

- Test system: NCI-H226
- assayComment: Anticancer activity against human NCI-H226 cells assessed as cell growth at 1 uM incubated for 48 hrs by SRB assay
- Assay type: functional
- cond: read-out: Activity
Counter-ions that a name gives are not always drawn.
Record criterion met whenever growth at 1 µM is at 80% or higher; record criterion not met when lower.

Could you please find out whether Cc1ccc(-c2cc(C(N)=O)c3cc(Cl)ccc3n2)o1 has growth at 1 µM that meets 80% or exceeds it?
criterion not met

growth at 1 µM >= 80% for Cc1nn(C[C@@H](O)COc2ccc3c(C)cc(=O)oc3c2)c(C)c1C ?
criterion not met

Does growth at 1 µM meet or surpass 80% for Cc1cc(C)n2ncc(C(=O)NCc3ccc(Cl)cc3)c2n1 ?
criterion met

Is the recorded value of growth at 1 µM equal to or greater than 80% for this compound? Cc1cc(C)n(C(=O)CCn2nc(C)c(Cl)c2C)n1
criterion not met

Check this compound for growth at 1 µM at or above 80%: C[C@H](Oc1ccc(Cl)cc1)C(=O)Nc1sc2c(c1C(N)=O)CCCC2
criterion not met

Decide: is the reported value of growth at 1 µM for Cc1sc2[nH]c(CNc3ccc(F)cc3)nc(=O)c2c1C equal to or greater than 80%?
criterion met

Hello, I need to know if Cc1ccc(-c2cc3cc(F)ccc3[nH]2)cc1N has measured growth at 1 µM not below 80%. Thanks!
criterion met

State whether the measured growth at 1 µM reaches 80%, counting equality as reaching it, for COc1cccc2c1C(=O)c1c(O)c3c(c(O)c1C2=O)C[C@@](O)(C(=O)CO)C[C@@H]3O[C@H]1C[C@H](N)[C@H](O)[C@H](C)O1 [DOXORUBICIN HYDROCHLORIDE]
criterion not met

Record Nc1cc(-c2cc3cc(F)ccc3[nH]2)ccc1F ; criterion: growth at 1 µM no lower than 80%. Met?
criterion met

Identify whether the reported growth at 1 µM of the following compound is 80% or greater: Cc1cc(C)cc(O[C@H](C)C(=O)Nc2ccc(F)c([N+](=O)[O-])c2)c1
criterion not met

Threshold query (growth at 1 µM >= 80%) on Cc1cc(C)n(C(=O)CNc2ccccc2Cl)n1
criterion not met

---

- System: NCI-H226
- assayComment: Anticancer activity against human NCI-H226 cells assessed as inhibition of cell growth incubated for 48 hrs by SRB assay
- Assay type: functional
Structures can show the parent of a compound that is named as a salt.
reportedEndpoint: TGI

Quick note, TGI for Cc1cc(C)n(C(=O)CNc2ccccc2Cl)n1 landed at > 100 µM

Reported TGI of Cc1sc2[nH]c(CNc3ccc(F)cc3)nc(=O)c2c1C : > 100 µM

Reported TGI for COc1cccc2c1C(=O)c1c(O)c3c(c(O)c1C2=O)C[C@@](O)(C(=O)CO)C[C@@H]3O[C@H]1C[C@H](N)[C@H](O)[C@H](C)O1 [DOXORUBICIN HYDROCHLORIDE] was 43.2 µM

For this molecule ( Nc1cc(-c2cc3cc(F)ccc3[nH]2)ccc1F ), measured TGI is > 100 µM

molecule Cc1ccc(-c2cc(C(N)=O)c3cc(Cl)ccc3n2)o1 , TGI observed: > 100 µM

---

Give IC50 for every item shown.
- experimentalSystem: Cytochrome P450 1A1 (Homo sapiens)
- Sequence (P04798 whole entry): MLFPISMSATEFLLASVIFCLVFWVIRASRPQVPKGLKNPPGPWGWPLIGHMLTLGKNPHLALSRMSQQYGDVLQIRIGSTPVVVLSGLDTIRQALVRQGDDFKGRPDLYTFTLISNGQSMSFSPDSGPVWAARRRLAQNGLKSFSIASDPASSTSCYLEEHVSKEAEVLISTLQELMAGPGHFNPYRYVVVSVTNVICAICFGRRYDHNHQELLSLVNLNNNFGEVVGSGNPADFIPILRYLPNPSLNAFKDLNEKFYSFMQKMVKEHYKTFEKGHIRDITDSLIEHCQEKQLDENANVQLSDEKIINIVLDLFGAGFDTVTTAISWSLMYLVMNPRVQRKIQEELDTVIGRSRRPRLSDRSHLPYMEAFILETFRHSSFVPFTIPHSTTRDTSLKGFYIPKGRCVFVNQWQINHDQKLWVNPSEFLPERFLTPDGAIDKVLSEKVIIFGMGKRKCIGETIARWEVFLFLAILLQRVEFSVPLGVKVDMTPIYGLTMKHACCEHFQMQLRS
- assayComment: Inhibition of recombinant CYP1A1 (unknown origin) assessed as decrease in EROD activity using 7-ethoxyresorufin as substrate incubated for 15 mins by resorufin dye based spectrofluorimetry
Please respond with the number in µM and leave the unit unwritten.

# compound Cc1cc(C)n2ncc(C(=O)NCc3ccc(Cl)cc3)c2n1 ; its IC50 = 10

Reported IC50 ( Cc1sc2[nH]c(CNc3ccc(F)cc3)nc(=O)c2c1C ) = 0.7

Briefly, IC50 measured for Nc1cc(-c2cc3cc(F)ccc3[nH]2)ccc1F : 0.3

For Cc1ccc(-c2cc3cc(F)ccc3[nH]2)cc1N the compound record lists IC50 as 0.13

The value of IC50 measured for the compound Cc1cc(C)n(C(=O)CCn2nc(C)c(Cl)c2C)n1 turned out to be 10

---

- experimentalSystem: UniProtKB P04798
- assayComment: Inhibition of recombinant CYP1A1 (unknown origin) assessed as residual enzyme activity using 7-ethoxyresorufin as substrate at 1 uM incubated for 15 mins by resorufin dye based spectrofluorimetry (reference value: 100%)
- Assay type: ADME
- cond: recombinant CYP1A1, probe 7-ethoxyresorufin, read-out: Activity
reportedEndpoint: activity at 0.25 h, 1 µM (%)
Return type: number; implicit unit %.

The reported activity at 0.25 h, 1 µM of the compound Nc1cc(-c2cc3cc(F)ccc3[nH]2)ccc1F was 39.8

Lab note: Cc1ccc(-c2cc3cc(F)ccc3[nH]2)cc1N gave activity at 0.25 h, 1 µM of 35.3

Per the record, Cc1sc2[nH]c(CNc3ccc(F)cc3)nc(=O)c2c1C has activity at 0.25 h, 1 µM of 46

# activity at 0.25 h, 1 µM of Cc1nn(C[C@@H](O)COc2ccc3c(C)cc(=O)oc3c2)c(C)c1C = 96.7

What the record says about Cc1ccc(-c2cc(C(N)=O)c3cc(Cl)ccc3n2)o1 : activity at 0.25 h, 1 µM is 101

activity at 0.25 h, 1 µM reading for Cc1cc(C)n(C(=O)CCn2nc(C)c(Cl)c2C)n1 : 52.9

Documented activity at 0.25 h, 1 µM of Cc1cc(C)cc(O[C@H](C)C(=O)Nc2ccc(F)c([N+](=O)[O-])c2)c1 : 94.2

Reported activity at 0.25 h, 1 µM for NC(=O)c1c(NC(=O)Cc2ccc(F)cc2)sc2c1CCCC2 was 100

Please fill in: activity at 0.25 h, 1 µM reported for C[C@H](Oc1ccc(Cl)cc1)C(=O)Nc1sc2c(c1C(N)=O)CCCC2 = 97.2

Just so you know, measured activity at 0.25 h, 1 µM for Cc1cc(C)n(C(=O)CNc2ccccc2Cl)n1 came out at 99.9

---

- Tested on: MCF7
- assayComment: Anticancer activity against human MCF7 cells assessed as cell growth at 100 uM incubated for 48 hrs by SRB assay
- Assay type: functional
- cond: read-out: Activity
Counter-ions that a name gives are not always drawn.
Assign growth at 100 µM to each entry below.
Give the value in % but do not write % after it.

The reported growth at 100 µM value, MCF7, for Cc1cc(C)cc(O[C@H](C)C(=O)Nc2ccc(F)c([N+](=O)[O-])c2)c1 reads 27.8

Tested on MCF7, the item Cc1cc(C)n(C(=O)CNc2ccccc2Cl)n1 showed growth at 100 µM equal to 26.7

Form field growth at 100 µM for item NC(=O)c1c(NC(=O)Cc2ccc(F)cc2)sc2c1CCCC2 on MCF7: 32.2

Record Cc1nn(C[C@@H](O)COc2ccc3c(C)cc(=O)oc3c2)c(C)c1C / MCF7, growth at 100 µM recorded as 25.3

Tested system MCF7; growth at 100 µM recorded for Cc1ccc(-c2cc(C(N)=O)c3cc(Cl)ccc3n2)o1 was 25.5

Form: item Cc1sc2[nH]c(CNc3ccc(F)cc3)nc(=O)c2c1C ; test system MCF7; growth at 100 µM: 26.3

Measured growth at 100 µM for this entry C[C@H](Oc1ccc(Cl)cc1)C(=O)Nc1sc2c(c1C(N)=O)CCCC2 on MCF7: 27.2

Field growth at 100 µM (system: MCF7) for entry Nc1cc(-c2cc3cc(F)ccc3[nH]2)ccc1F = 44.5

Reading of growth at 100 µM for COc1cccc2c1C(=O)c1c(O)c3c(c(O)c1C2=O)C[C@@](O)(C(=O)CO)C[C@@H]3O[C@H]1C[C@H](N)[C@H](O)[C@H](C)O1 [DOXORUBICIN HYDROCHLORIDE] with MCF7: -1.6

Param item: Cc1cc(C)n2ncc(C(=O)NCc3ccc(Cl)cc3)c2n1 ; param system: MCF7; output growth at 100 µM: 20.6

Query Cc1cc(C)n(C(=O)CCn2nc(C)c(Cl)c2C)n1 on MCF7; growth at 100 µM returned: 22.9

Entry Cc1ccc(-c2cc3cc(F)ccc3[nH]2)cc1N : growth at 100 µM on MCF7 = 67.1
